# ASSAY TEXT: Plasma stability in human plasma assessed as compound remaining measured after 15 mins
# Type: ADME, cell-free
# CONDITIONS USED: read-out: Stability
ENDPOINT LABEL: remaining at 0.25 h (%)
Express the result in % but write the number alone.

cpd_smiles=CC(C)(C)c1ccc(N2C(=O)C(C)(C)N(Cc3ccc(S(N)(=O)=O)c(F)c3)C2=S)cc1 units_of_measure=% assay_value=89.8
cpd_smiles=CC1(C)C(=O)N(c2ccc(C(F)(F)F)cc2)C(=S)N1Cc1ccc(S(N)(=O)=O)c(F)c1 units_of_measure=% assay_value=99.5

-- ask // remaining at 0.25 h lookup, key: "Cc1ccc(CN2C(=S)N(c3ccc(C(C)(C)C)cc3)C(=O)C2(C)C)cc1C"
-- reply 103

-- ask // remaining at 0.25 h lookup, key: "CC1(C)C(=O)N(c2cc(C(F)(F)F)cc(C(F)(F)F)c2)C(=S)N1Cc1ccc(S(N)(=O)=O)c(F)c1"
-- reply 98.8

* * *

# TESTED TARGET: Cytochrome P450 3A4 (Homo sapiens, UniProt P08684)
# Sequence (P08684 whole entry): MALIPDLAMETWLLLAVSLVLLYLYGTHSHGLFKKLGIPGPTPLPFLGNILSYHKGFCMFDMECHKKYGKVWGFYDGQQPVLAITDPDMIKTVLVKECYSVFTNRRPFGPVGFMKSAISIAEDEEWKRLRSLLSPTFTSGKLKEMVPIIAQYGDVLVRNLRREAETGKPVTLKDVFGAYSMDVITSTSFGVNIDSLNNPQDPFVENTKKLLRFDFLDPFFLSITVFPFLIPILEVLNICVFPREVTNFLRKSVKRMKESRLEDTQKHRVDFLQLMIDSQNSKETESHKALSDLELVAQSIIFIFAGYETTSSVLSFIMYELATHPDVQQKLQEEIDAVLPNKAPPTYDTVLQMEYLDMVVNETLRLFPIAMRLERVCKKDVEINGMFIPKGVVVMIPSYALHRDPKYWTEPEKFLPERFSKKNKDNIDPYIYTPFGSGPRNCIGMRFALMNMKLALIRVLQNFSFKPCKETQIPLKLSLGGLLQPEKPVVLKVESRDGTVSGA
# ASSAY TEXT: Inhibition of CYP3A4 (unknown origin) using midazolam as substrate
# Type: ADME
IC50 values by entry

// solved cases for IC50 follow
cpd_smiles=COc1ccc(N2C(=O)/C(=C/c3ccccc3C(F)(F)F)SC2=S)cc1 tested_target="Cytochrome P450 3A4 (Homo sapiens, UniProt P08684)" endpoint_label=IC50 assay_value="> 10 µM"
cpd_smiles=CC1(C)C(=O)N(c2ccc(C(F)(F)F)cc2)C(=S)N1Cc1ccc(S(N)(=O)=O)c(F)c1 tested_target="Cytochrome P450 3A4 (Homo sapiens, UniProt P08684)" endpoint_label=IC50 assay_value="> 10 µM"
cpd_smiles=CC1(C)C(=O)N(c2cc(C(F)(F)F)cc(C(F)(F)F)c2)C(=S)N1Cc1ccc(S(N)(=O)=O)c(F)c1 tested_target="Cytochrome P450 3A4 (Homo sapiens, UniProt P08684)" endpoint_label=IC50 assay_value="> 10 µM"
cpd_smiles=COc1ccc(N2C(=O)C(C)(C)N(Cc3ccc(C)c(C)c3)C2=S)cc1 tested_target="Cytochrome P450 3A4 (Homo sapiens, UniProt P08684)" endpoint_label=IC50 assay_value="> 10 µM"
cpd_smiles=Cc1ccc(CN2C(=S)N(c3ccc(C(C)(C)C)cc3)C(=O)C2(C)C)cc1C tested_target="Cytochrome P450 3A4 (Homo sapiens, UniProt P08684)" endpoint_label=IC50 assay_value="> 10 µM"
cpd_smiles=CC1(C)C(=O)N(c2ccc(Oc3ccccc3)cc2)C(=S)N1Cc1ccc(S(N)(=O)=O)c(F)c1 tested_target="Cytochrome P450 3A4 (Homo sapiens, UniProt P08684)" endpoint_label=IC50 assay_value="> 10 µM"
cpd_smiles=CC(C)(C)c1ccc(N2C(=O)C(C)(C)N(Cc3ccc(S(N)(=O)=O)c(F)c3)C2=S)cc1 tested_target="Cytochrome P450 3A4 (Homo sapiens, UniProt P08684)" endpoint_label=IC50 assay_value="> 10 µM"

Proceeding to the next compound to report its IC50.
-- ask // IC50 lookup, key: "COc1ccc(N2C(=O)C(C)(C)N(Cc3ccc(Br)c(C)c3)C2=S)cc1"
-- reply > 10 µM

* * *

# ASSAY TEXT: Aqueous solubility of the compound in pH 7.4 PBS buffer
# Type: physicochemical
Class definitions on solubility: small value = under 0.09 µM, mid value = from 0.09 µM up to 10 µM, large value = 10 µM and over

Please review the following examples before continuing.
molecule=CC1(C)C(=O)N(c2cc(C(F)(F)F)cc(C(F)(F)F)c2)C(=S)N1Cc1ccc(S(N)(=O)=O)c(F)c1 assigned_category="large value"
molecule=COc1ccc(N2C(=O)/C(=C/c3ccccc3C(F)(F)F)SC2=S)cc1 assigned_category="small value"
molecule="CC(C)NCC(O)COc1cccc2ccccc12 (stereo unspecified)" assigned_category="large value"
molecule=c1ccc(-c2nc[nH]c2-c2ccccc2)cc1 assigned_category="large value"
molecule=COc1ccc(N2C(=O)C(C)(C)N(Cc3ccc(Br)c(C)c3)C2=S)cc1 assigned_category="small value"
molecule=CC1(C)C(=O)N(c2ccc(C(F)(F)F)cc2)C(=S)N1Cc1ccc(S(N)(=O)=O)c(F)c1 assigned_category="large value"

-- ask Any idea which band "COc1ccc(N2C(=O)C(C)(C)N(Cc3ccc(C)c(C)c3)C2=S)cc1" is in?
-- reply small value

-- ask Any idea which band "CC1(C)C(=O)N(c2ccc(Oc3ccccc3)cc2)C(=S)N1Cc1ccc(S(N)(=O)=O)c(F)c1" is in?
-- reply mid value

-- ask Any idea which band "CC(C)(C)c1ccc(N2C(=O)C(C)(C)N(Cc3ccc(S(N)(=O)=O)c(F)c3)C2=S)cc1" is in?
-- reply large value

-- ask Any idea which band "CCCSc1ccc2nc(NC(=O)OC)[nH]c2c1" is in?
-- reply mid value
